The origin of these recorded values is patent EP4678634A1.

- Measurement Target: Androgen receptor (AR) (Homo sapiens)
- Sequence (P10275 whole entry): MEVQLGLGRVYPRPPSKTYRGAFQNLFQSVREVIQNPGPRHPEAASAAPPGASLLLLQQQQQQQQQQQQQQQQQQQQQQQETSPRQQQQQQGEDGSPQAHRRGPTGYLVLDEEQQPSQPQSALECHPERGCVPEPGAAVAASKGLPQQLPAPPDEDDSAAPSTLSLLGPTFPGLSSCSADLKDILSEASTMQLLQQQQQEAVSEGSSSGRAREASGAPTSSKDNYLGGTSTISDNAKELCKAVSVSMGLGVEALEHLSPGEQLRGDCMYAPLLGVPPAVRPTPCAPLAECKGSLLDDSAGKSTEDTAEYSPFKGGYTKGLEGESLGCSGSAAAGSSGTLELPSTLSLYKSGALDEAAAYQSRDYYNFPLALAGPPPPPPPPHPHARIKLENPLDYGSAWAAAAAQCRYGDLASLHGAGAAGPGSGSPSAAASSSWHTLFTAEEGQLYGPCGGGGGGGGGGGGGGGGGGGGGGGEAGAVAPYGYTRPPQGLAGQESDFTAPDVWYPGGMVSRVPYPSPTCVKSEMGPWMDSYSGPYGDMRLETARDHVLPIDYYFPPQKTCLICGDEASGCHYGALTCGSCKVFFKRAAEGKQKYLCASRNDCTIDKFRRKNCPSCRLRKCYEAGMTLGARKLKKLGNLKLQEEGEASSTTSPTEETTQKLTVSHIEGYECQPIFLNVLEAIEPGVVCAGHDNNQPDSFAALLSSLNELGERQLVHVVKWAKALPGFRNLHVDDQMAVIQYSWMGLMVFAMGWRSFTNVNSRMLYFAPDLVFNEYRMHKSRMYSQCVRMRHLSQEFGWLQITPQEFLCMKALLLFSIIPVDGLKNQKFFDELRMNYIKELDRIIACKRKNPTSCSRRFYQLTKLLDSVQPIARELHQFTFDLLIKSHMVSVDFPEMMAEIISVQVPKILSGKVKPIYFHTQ
- Assay Remarks: Androgen receptor (AR) reporter gene assay (luciferase)
- Measurement Context: AR+ARE/Luc HEK293T cells, stimulated with 11-KDHT, 24h incubation, Bright-Lite luminescence; read-out: HEK293 Luc IC50
Measured Quantity: IC50

INSERT INTO measurements (molecule, measured_quantity, measurement) VALUES
  ('ClCCOc1c(Cl)cc2c(c1Cl)CCCC2c1ccc2[nH]nnc2c1 (stereo not drawn)', 'IC50', '500 to 1000 nM'),
  ('N#Cc1cc2c(c(Cl)c1OCCCl)CCCC2c1cncnc1 (stereo not drawn)', 'IC50', '1 to 500 nM'),
  ('NCc1cc2c(c(Cl)c1OCCCl)CCCC2c1cnc2[nH]ncc2c1 (stereo not drawn)', 'IC50', '500 to 1000 nM'),
  ('N#Cc1cc2c(c(Cl)c1OCCCl)CCCC2Nc1ccc2[nH]ncc2c1 (stereo not drawn)', 'IC50', '1 to 500 nM');

get_value(item= N#Cc1cc2c(c(Cl)c1OCCCl)CCCC2NC(=O)c1ccncc1 (stereo not drawn) , readout=IC50) returns 500 to 1000 nM

Entry N#Cc1ccc(NC2CCCc3c2cc(C#N)c(OCCCl)c3Cl)cn1 (stereo not drawn) — recorded IC50 = 1 to 500 nM

Briefly, IC50 measured for CNc1ncc(C2CCCc3c2cc(C#N)c(OCCCl)c3Cl)cn1 (stereo not drawn) : 1 to 500 nM

Data point: N#Cc1cc2c(c(Cl)c1OCCCl)CCCC2c1ccc(O)cc1 (stereo not drawn) ; IC50 = 1 to 500 nM

Query CCCOc1c(C#N)cc2c(c1Cl)CCCC2Nc1ccc(OC)nc1 (stereo not drawn) yields IC50 of 1 to 500 nM
